For each entry below, report its Inhibition of IFN-gamma Release IC50; Donor 7 value.
- experimental.system: T1, human CD48 (on primary human peripheral blood mononuclear cells) (human, UniProt P09326 27-220)
- T1 sequence: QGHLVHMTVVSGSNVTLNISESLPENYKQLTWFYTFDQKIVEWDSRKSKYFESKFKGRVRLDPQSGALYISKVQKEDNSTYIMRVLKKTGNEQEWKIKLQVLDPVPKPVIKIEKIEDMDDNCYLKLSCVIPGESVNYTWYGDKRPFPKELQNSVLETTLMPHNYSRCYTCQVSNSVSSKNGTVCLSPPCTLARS
- test.description: cell-based or functional assay
State just the number; it will be interpreted in Molar.

Form: binder = H4H1781P (antibody, human IgG4, V domains shown, Human IgG4 Fc (H4H)) VH: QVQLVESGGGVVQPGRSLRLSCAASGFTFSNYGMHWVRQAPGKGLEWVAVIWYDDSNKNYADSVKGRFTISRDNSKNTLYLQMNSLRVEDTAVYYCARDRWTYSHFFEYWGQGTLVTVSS VL: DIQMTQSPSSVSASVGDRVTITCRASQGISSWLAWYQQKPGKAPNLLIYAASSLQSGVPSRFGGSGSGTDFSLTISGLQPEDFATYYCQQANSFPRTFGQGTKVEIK ; Inhibition of IFN-gamma Release IC50; Donor 7 = 1.5e-11

The binder H2M1710N (antibody, mouse IgG2, V domains shown, Human variable domains, mouse IgG2 Fc (H2M)) VH: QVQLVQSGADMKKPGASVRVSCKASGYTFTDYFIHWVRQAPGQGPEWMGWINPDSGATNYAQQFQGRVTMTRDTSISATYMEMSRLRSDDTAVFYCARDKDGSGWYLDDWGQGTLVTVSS VL: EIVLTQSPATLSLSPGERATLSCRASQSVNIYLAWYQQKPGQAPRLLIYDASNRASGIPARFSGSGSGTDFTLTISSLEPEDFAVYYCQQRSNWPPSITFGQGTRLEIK showed Inhibition of IFN-gamma Release IC50; Donor 7 equal to 1.4e-10

Inhibition of IFN-gamma Release IC50; Donor 7 recorded for this binder, H4H1775P (antibody, human IgG4, V domains shown, Human IgG4 Fc (H4H)) VH: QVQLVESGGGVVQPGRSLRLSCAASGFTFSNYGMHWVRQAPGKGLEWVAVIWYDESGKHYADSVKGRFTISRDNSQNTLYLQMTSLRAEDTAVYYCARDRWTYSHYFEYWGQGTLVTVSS VL: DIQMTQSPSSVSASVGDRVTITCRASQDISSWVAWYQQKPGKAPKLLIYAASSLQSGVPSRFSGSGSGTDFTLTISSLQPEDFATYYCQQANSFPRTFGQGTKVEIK , is 5.1e-12
